# Test system: COLO 205
# Assay comment: Antiproliferative activity against human COLO205 cells
# Format: functional, cell-based
Field: IC50. Provide a value for each of the compounds that follow.
Numbers only, in µM.

Recorded results for 5 compounds are shown here.
>>> observed("CC(C)(C)OC(=O)NCCCCCCNC(=O)COC1=CC(=O)c2c(O)cccc2C1=O")
1.3
>>> observed("NCCCCC(CN)CNC(=O)COC1=CC(=O)c2c(O)cccc2C1=O (stereo unspecified)")
7.3
>>> observed("CC(C)(C)OC(=O)NCC(CCCCNC(=O)COC1=CC(=O)c2c(O)cccc2C1=O)NC(=O)OC(C)(C)C (stereo unspecified)")
1.6
>>> observed("O=C(O)C(F)(F)F.O=C1C(OCC(=O)N2CCNCC2)=CC(=O)c2c(O)cccc21")
0.8
>>> observed("CC(C)(C)OC(=O)N1CCN(C(=O)COC2=CC(=O)c3c(O)cccc3C2=O)CC1")
2.3

State recorded IC50 for all listed compounds.
1. NCC(CN)CCCCNC(=O)COC1=CC(=O)c2c(O)cccc2C1=O
2. COC(=O)CCCCCNC(=O)COC1=CC(=O)c2c(O)cccc2C1=O
3. CC(C)(C)OC(=O)NCCCCC(CNC(=O)COC1=CC(=O)c2c(O)cccc2C1=O)NC(=O)OC(C)(C)C (stereo unspecified)
4. O=C1NC2CSC(CCCCC(=O)N3CCN(C(=O)COC4=CC(=O)c5ccccc5C4=O)CC3)C2N1 (stereo unspecified)

Result block:
1: 5.3; 2: 4.4; 3: 3.1; 4: 2.3
